compounds and their reported inhibition
- EXPERIMENTAL_TARGET: Aminopeptidase N (Plasmodium falciparum (isolate 3D7)) (UniProt O96935)
- Sequence (O96935 whole entry, looked up): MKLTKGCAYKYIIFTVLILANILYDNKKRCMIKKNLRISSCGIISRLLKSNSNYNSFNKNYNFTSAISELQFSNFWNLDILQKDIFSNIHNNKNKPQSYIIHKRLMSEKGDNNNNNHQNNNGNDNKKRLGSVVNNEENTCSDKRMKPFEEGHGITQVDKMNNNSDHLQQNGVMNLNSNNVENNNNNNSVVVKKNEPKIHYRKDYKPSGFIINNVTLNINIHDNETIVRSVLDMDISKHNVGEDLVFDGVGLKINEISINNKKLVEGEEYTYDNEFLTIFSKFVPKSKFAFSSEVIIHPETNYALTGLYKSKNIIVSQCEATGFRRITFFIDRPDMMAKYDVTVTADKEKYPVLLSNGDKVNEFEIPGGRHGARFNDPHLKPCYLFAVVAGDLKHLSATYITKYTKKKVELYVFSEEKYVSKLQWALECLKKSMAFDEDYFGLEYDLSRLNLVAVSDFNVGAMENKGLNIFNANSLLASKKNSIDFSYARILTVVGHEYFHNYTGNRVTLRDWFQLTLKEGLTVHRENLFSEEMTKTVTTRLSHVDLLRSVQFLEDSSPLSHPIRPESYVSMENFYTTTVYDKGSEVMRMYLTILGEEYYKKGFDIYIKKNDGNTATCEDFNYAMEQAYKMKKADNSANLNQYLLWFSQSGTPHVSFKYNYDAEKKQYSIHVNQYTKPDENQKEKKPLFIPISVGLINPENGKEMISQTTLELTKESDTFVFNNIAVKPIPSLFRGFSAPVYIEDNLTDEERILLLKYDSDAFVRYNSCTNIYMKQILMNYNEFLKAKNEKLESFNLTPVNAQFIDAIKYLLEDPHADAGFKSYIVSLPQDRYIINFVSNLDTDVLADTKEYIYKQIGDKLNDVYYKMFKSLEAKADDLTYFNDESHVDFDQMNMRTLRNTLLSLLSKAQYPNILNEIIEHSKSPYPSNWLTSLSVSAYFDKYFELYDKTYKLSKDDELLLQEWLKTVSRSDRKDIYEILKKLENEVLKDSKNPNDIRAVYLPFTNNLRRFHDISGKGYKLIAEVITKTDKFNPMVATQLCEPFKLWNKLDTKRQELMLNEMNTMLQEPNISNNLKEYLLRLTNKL
- ASSAY: malaria alanyl aminopeptidase activity blockers – biochemical, fluorogenic H-Leu-NHMec substrate, 1536-well (AID 1445);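 further: plate controls were DMSO full reaction for no effect and no enzyme background for full effect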
- CONDITION_INFO: recombinant M1AAP, H-Leu-NHMec fluorogenic kinetic assay; at 30 µM, stronger effect = higher value unless noted
The whole screen tested about 220,000 compounds, of which about 910 (0.41%) were called active. Only a selection was taken, and actives are over-represented in it overall. Measured potencies and affinities stand elsewhere.
Report the value in % with no unit label.

COc1ccc(N=C2NC(=O)/C(=C/c3ccco3)S2)cc1 | 7.45
COc1ccc(N=C2NC(=O)/C(=C\c3ccco3)S2)cc1 | 6.07
O=C1N/C(=N/O)S/C1=C/c1cccc([N+](=O)[O-])c1 | 13.8

Would you mind telling me what inhibition value was observed for Cc1ccc(NS(=O)(=O)c2ccc(NS(=O)(=O)c3cccs3)cc2)cc1 ?
-3.61

Would you mind telling me what inhibition value was observed for CC(=O)Nc1ccc(NC(=O)Cn2nc([N+](=O)[O-])c(Br)c2C)cc1 ?
-1.26

Would you mind telling me what inhibition value was observed for Cc1ccc(S(=O)(=O)NC(=O)c2ccc(Br)o2)cc1 ?
0.41

Would you mind telling me what inhibition value was observed for CN(C)CCCNC(=O)c1cc(C(=O)C2CCCCC2)c[nH]1 ?
3.52

Would you mind telling me what inhibition value was observed for CSC1=N/C(=C\c2ccc(Br)o2)C(=O)S1 ?
1.89

Would you mind telling me what inhibition value was observed for O=C(O)c1cccc(CN2C(=O)S/C(=C/c3cccc([N+](=O)[O-])c3)C2=O)c1 ?
3.75

Would you mind telling me what inhibition value was observed for COc1ccc(C2CC(=O)C(C=NCCN3CCN(C(=S)Nc4ccccc4)CC3)=C(O)C2)cc1OC (stereo unspecified) ?
12.8

Would you mind telling me what inhibition value was observed for Cc1cc(C)nc(NS(=O)(=O)c2cccs2)c1 ?
-0.13
